Values from patent US20140303246A1

Experiment: Resazurin assay, viability of cells by metabolic activity
Assay type: cell-based
Settings: human, primary human epidermal keratinocytes (NHEK), metabolic activity (Resazurin) as read-out, read-out: IC50 for the cytolytic/cytotoxic effect based on metabolic activity
reported-metric: pIC50
Note: pIC50 values are expressed as the negative base-10 logarithm of concentration in M.

1. CC(N)C12CC3CC(CC(C3)C1)C2 (centres unmarked) ... 3.18

Prompt: Bench note: what pIC50 did CC12CC3CC(C)(C1)CC(N)(C3)C2 [Memantine, 3,5-dimethyladamantan-1-amine] show?
Response: 3.48
